- Test system: Cellular Release of Amyloid Peptide 1-40
- experiment-description: Test 4: Inhibition of Cellular Release of Amyloid Peptide 1-40
- Format: cell-based, Chinese hamster
- measurement-parameters: Cricetulus griseus, 24 h; read-out: Amyloid-β1-40 release IC50
assay-readout: IC50 (nM)
Kindly provide the numeric value in nM only, without the unit symbol.

query: I am curious: what IC50 value has been reported for `NC1=N[C@@](c2cc(NC(=O)c3ncc(C(F)F)cc3N)ccc2F)(C(F)F)COC1` ?
result: 10

query: Need IC50, item `[2H]C([2H])([2H])OCc1cc(C#N)cnc1C(=O)Nc1ccc(F)c([C@]2(C)CO[C@@](C)(C(F)(F)F)C(N)=N2)c1`
result: 9

query: // lookup IC50 for `[2H]C([2H])([2H])Oc1cnc(C(=O)Nc2ccc(F)c([C@]3(C)CO[C@@](C)(C(F)(F)F)C(N)=N3)c2)c(C)c1`
result: 18

query: I am curious: what IC50 value has been reported for `NC1=N[C@@](c2cc(NC(=O)c3ccc4c(Cl)c[nH]c4n3)ccc2F)(C(F)F)COC1` ?
result: 14

query: Sample `[2H]C([2H])([2H])Oc1cnc(C(=O)Nc2ccc(F)c([C@]3(C(F)F)COCC(N)=N3)c2)c(C)c1` — what was its IC50?
result: 22

query: Please give the measured IC50 for this compound: `NC1=N[C@@](c2cc(NC(=O)c3ncc(C(F)F)nc3N)ccc2F)(C(F)F)COC1`
result: 8

query: GET /values?readout=IC50&item= `C[C@@]1(c2cc(NC(=O)c3ncc(C(F)F)cc3N)ccc2F)CO[C@@](C)(C(F)(F)F)C(N)=N1`
result: 10
